Data provenance is ChEMBL document CHEMBL1155952.

Target: Receptor tyrosine-protein kinase erbB-2 (Homo sapiens)
Sequence (P04626 whole entry): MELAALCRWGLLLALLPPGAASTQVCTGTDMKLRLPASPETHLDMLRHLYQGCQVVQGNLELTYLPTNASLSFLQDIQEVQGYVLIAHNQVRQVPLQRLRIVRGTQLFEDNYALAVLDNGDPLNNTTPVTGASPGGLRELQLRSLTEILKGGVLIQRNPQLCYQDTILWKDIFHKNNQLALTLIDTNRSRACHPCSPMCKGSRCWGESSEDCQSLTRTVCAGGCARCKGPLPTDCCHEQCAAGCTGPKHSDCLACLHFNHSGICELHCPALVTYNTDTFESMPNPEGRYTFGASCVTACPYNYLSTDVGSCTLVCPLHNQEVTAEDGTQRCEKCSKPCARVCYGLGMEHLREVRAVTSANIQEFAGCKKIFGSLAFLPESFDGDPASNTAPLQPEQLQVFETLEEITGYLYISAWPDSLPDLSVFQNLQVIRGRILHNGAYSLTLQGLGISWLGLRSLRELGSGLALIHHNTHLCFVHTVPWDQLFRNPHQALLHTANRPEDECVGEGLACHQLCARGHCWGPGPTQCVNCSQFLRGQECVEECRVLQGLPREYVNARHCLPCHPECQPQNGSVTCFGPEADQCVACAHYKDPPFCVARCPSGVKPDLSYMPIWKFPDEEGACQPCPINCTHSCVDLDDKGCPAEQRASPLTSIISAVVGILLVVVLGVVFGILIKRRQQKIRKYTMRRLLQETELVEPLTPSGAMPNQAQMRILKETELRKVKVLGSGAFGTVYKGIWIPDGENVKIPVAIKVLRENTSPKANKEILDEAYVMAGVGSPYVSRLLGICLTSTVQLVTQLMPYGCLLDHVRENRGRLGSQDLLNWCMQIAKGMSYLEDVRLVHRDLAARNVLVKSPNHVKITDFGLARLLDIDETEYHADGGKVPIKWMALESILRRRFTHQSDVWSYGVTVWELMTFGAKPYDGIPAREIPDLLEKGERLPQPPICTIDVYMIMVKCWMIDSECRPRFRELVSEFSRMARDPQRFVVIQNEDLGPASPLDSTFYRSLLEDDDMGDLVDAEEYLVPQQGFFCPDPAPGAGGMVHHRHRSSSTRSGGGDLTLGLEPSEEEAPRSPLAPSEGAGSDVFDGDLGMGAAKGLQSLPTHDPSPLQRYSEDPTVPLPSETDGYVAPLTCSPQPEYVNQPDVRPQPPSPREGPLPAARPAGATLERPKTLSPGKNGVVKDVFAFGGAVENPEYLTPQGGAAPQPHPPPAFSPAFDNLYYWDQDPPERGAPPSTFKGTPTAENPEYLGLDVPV
Assay: Inhibition of human ErB2 phosphorylation in human SKBR3 cells
Assay type: cell-based, SK-BR-3
value.kind: IC50 (nM)
Report the value in nM with no unit label.

Recorded IC50, per entry:
{"smiles.representation": "COC[C@@H]1CCCN1/N=C/c1c(N)ncnc1Nc1ccc2c(cnn2Cc2cccc(F)c2)c1", "reported": 426}
{"smiles.representation": "CN1CCN(/N=C/c2c(N)ncnc2Nc2ccc3c(cnn3Cc3cccc(F)c3)c2)CC1", "reported": 509}
{"smiles.representation": "Nc1ncnc(Nc2ccc3c(cnn3Cc3cccc(F)c3)c2)c1/C=N/N1CCN(CCO)CC1", "reported": 54}
{"smiles.representation": "Nc1ncnc(Nc2ccc3c(cnn3Cc3cccc(F)c3)c2)c1/C=N/N1CCOCC1", "reported": 83}
{"smiles.representation": "Nc1ncnc(Nc2ccc3c(cnn3Cc3cccc(F)c3)c2)c1/C=N/N1CCCCC1", "reported": 148}

Given CN/N=C/c1c(N)ncnc1Nc1ccc2c(cnn2Cc2cccc(F)c2)c1 , state its recorded IC50. 361

Could you do the same for CN(C)/N=C/c1c(N)ncnc1Nc1ccc2c(cnn2Cc2cccc(F)c2)c1 , please? 105

Please answer likewise for COc1ccc(/N=C/c2c(N)ncnc2Nc2ccc3c(cnn3Cc3cccc(F)c3)c2)cc1 1290

And the next one, Nc1ncnc(Nc2ccc3c(cnn3Cc3cccc(F)c3)c2)c1/C=N/NCC(F)(F)F ? 258
